- Test system: HEK cells
- procedureSummary: Cytotoxicity assay, ALAMARBLUE, HEK cells
- testConditions: HEK cells with or without LASVpv, ALAMARBLUE
Ends that are not written are not given here.
observationType: cell viability in the presence and absence of virus

substance: RRGWALRLNLYYGRR-NH2 [*ARNY*, RRGWALRLNLYYGRR]
reported: no difference

substance: RRGWNLALTLTYGRR-NH2 [*NATT*, RRGWNLALTLTYGRR]
reported: no difference

----------
- System: H3N2 influenza virus
- testConditions: influenza virus
Ends that are not written are not given here.
Reported pEC50 by item:
# log scale: pEC50 equals minus log10 of the concentration in mol/L

The following substances have reported results that may help.
substance: RRGWVLDLVLYYGRR-NH2 [*VDVY*, RRGWVLDLVLYYGRR]
assaySystem: H3N2 influenza virus
pEC50: 4.92

substance: RRGWNLALTLTYGRR-NH2 [*NATT*, RRGWNLALTLTYGRR]
assaySystem: H3N2 influenza virus
pEC50: 6.15

substance: RRGFSLKLALLKDGWLLLRLGYGRR-NH2 [IT1-b]
assaySystem: H3N2 influenza virus
pEC50: 5.64

substance: RRRRRRRRRWC-NH2 [Arg9, RRRRRRRRRWC, reference compound]
assaySystem: H3N2 influenza virus
pEC50: 5.17

substance: RRGFSLKLLLSYRGWALLRLGYGRR-NH2 [IT1-a]
assaySystem: H3N2 influenza virus
pEC50: 5.80

Enquiry: Need pEC50, item RRGWTLNLTLNYGRR-NH2 [*TNTN*, RRGWTLNLTLNYGRR]
Return: 5.21

----------
- Tested on: Vero E6 cells
- procedureSummary: Cytotoxicity assay, CELLTITER-GLO, Vero E6 cells
- testConditions: peptide concentrations at or below 2 μM, about 72 hours
Ends that are not written are not given here.

substance: RRGWLLLRLLRLLLRLLWGRR-NH2 [AHR]
cell viability, Vero E6 cells: High cell viability

substance: RRGFSLKLALLKDGWLLLRLGYGRR-NH2 [IT1-b]
cell viability, Vero E6 cells: High cell viability

substance: RRWLLLLNLLLLWRR-NH2 [TL4NdG, RRWLLLLNLLLLWRR]
cell viability, Vero E6 cells: High cell viability

substance: RRGWLLLRLLLWGRR-NH2 [TL3, RRGWLLLRLLLWGRR]
cell viability, Vero E6 cells: High cell viability

----------
- System: H3N2 influenza virus
- testConditions: influenza virus
Ends that are not written are not given here.
Recorded EC50 by entry
Answer format: numeric, nM implied, no suffix.

In the examples that follow, each entry is paired with its recorded EC50.
substance: RRGFSLKLALLYRGWLLLLRLGYGRR-NH2 [IT1-c]
observationType: EC50
reported: 1200
//
substance: RRGFSLKLRLLYRGWGLALRLGYGRR-NH2 [IT1-d]
observationType: EC50
reported: 400
//
substance: WALRLYLGVY-NH2 [ARYV, WALRLYLGVY]
observationType: EC50
reported: 3700
//
substance: RRGWGLRLVLYYGRR-NH2 [*GRVY*, RRGWGLRLVLYYGRR]
observationType: EC50
reported: 9100

Enquiry: Quick one: EC50 for RRGWALRLVLAY-NH2 [*ARVA, RRGWALRLVLAY] ?
Return: 900

Enquiry: Request the reported EC50 associated with RRGWALRLNLYYGRR-NH2 [*ARNY*, RRGWALRLNLYYGRR]
Return: 4500

Enquiry: Which EC50 value is on record for RRGFSLKLALLKDGWLLLLRLGYGRR-NH2 [IT1-f] ?
Return: 1500

Enquiry: Fill in the blank: the reported EC50 of RRGWNLRLRLVYGRR-NH2 [*NRRV*, RRGWNLRLRLVYGRR] is ____.
Return: 8000

Enquiry: Which value of EC50 has been reported for WVLVLRLGY-NH2 [VVRG, WVLVLRLGY] in the records?
Return: 6100

Enquiry: What measured EC50 goes with RRGFSLKLKLLYRGWALALRLGYGRR-NH2 [IT1-e] ?
Return: 600

Enquiry: What does the record list as EC50 for RRGWRLNLNLYYGRR-NH2 [*RNNY*, RRGWRLNLNLYYGRR] ?
Return: 2300
